So I've got pKi readings for Adenosine receptor A2a (Homo sapiens), take a look.
Please express pKi as -log10 of the molar concentration.

Query :: Please report the recorded pKi for "CC(C)(C)OC(=O)NCCCCCNc1nc(N)n2nc(-c3ccco3)nc2n1" .
Result :: 7.35

Query :: Please report the recorded pKi for "NCCNc1nc(N)n2nc(-c3ccco3)nc2n1" .
Result :: 6.25

Query :: Please report the recorded pKi for "NCCOCCOCCNc1nc(N)n2nc(-c3ccco3)nc2n1.O=C(O)C(F)(F)F" .
Result :: 7.94

Query :: Please report the recorded pKi for "CC(C)(C)OC(=O)NCCCNc1nc(N)n2nc(-c3ccco3)nc2n1" .
Result :: 7.41

Query :: Please report the recorded pKi for "Nc1nc(N)n2nc(-c3ccco3)nc2n1" .
Result :: 6.80

----------
test: Aqueous solubility of the compound; type: physicochemical; details: water (aqueous)
REPORTED METRIC: solubility (mM)
Unit mM implied. Number only.

Query :: Please report the recorded solubility for NCC1CCC(CNc2nc(N)n3nc(-c4ccco4)nc3n2)CC1.O=C(O)C(F)(F)F (configuration not stated) .
Result :: 10

Query :: Please report the recorded solubility for "NCCOCCOCCNc1nc(N)n2nc(-c3ccco3)nc2n1.O=C(O)C(F)(F)F" .
Result :: 10

----------
organism: Homo sapiens; experiment: Selectivity ratio of Ki for human adenosine A1 receptor to Ki for human adenosine A2A receptor
REPORTED METRIC: Ratio Ki
Kindly provide the number alone.

Nc1nc(N2CCN(Cc3ccc(Cl)cc3)CC2)nc2nc(-c3ccco3)nn12 = 2.1
CC(C)(C)OC(=O)NCCCNc1nc(N)n2nc(-c3ccco3)nc2n1 = 9
Nc1nc(N2CCN(C(=O)Cc3ccccc3)CC2)nc2nc(-c3ccco3)nn12 = 37
Nc1nc(N2CCN(C(=O)C(c3ccccc3)c3ccccc3)CC2)nc2nc(-c3ccco3)nn12 = 80

Read the next record carefully.
Query :: Please report the recorded Ratio Ki for "NCCCCCNc1nc(N)n2nc(-c3ccco3)nc2n1" .
Result :: 33

----------
Molecular target: Adenosine receptor A1 (Homo sapiens)
Sequence (P30542 whole entry): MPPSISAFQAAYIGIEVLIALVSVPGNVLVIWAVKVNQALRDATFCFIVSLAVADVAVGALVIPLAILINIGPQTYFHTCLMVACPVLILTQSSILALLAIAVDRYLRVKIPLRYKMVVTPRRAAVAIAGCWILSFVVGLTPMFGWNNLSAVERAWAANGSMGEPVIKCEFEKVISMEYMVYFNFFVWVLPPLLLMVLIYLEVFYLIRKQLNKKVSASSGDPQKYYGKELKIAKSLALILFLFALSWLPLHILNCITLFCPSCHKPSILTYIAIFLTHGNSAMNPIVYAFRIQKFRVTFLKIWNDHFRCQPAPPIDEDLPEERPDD
REPORTED METRIC: pKi
Please express pKi as -log10 of the molar concentration.

Known pKi results, listed for orientation:
Nc1nc(N)n2nc(-c3ccco3)nc2n1 = 5.85
Nc1nc(N2CCN(Cc3ccc(Br)cc3)CC2)nc2nc(-c3ccco3)nn12 = 7.06
CC(C)(C)OC(=O)NCCCNc1nc(N)n2nc(-c3ccco3)nc2n1 = 6.46
Nc1nc(O)nc2nc(-c3ccco3)nn12 = 5.51
Nc1nc(N2CCN(Cc3ccc(F)cc3)CC2)nc2nc(-c3ccco3)nn12 = 6.18

Read the next record carefully.
Query :: Please report the recorded pKi for "CC(C)(C)OC(=O)NCCOCCOCCNc1nc(N)n2nc(-c3ccco3)nc2n1" .
Result :: 5.80
